SYSTEM NAME: T1, mouse YKL-40/BRP-39 (mouse, UniProt Q61362 30-389)
T1 construct: Recombinant from HEK293; non-tagged versions also made; also called mYKL40/BRP39; mYKL-40
T1 sequence (Q61362 other isoform, or with tags, fused parts or gaps limits assumed): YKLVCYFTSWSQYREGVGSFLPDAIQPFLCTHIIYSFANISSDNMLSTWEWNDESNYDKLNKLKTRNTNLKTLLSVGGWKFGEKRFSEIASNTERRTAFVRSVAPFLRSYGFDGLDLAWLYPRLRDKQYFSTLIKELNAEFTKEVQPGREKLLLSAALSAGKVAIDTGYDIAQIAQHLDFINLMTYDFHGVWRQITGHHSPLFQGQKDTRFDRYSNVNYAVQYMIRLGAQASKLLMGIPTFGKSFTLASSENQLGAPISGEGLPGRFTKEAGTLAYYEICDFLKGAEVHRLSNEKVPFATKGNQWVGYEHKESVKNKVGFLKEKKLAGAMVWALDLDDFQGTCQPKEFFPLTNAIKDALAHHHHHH
ASSAY PROTOCOL: ELISA
OUTCOME MEASURE: binding result

Z1 (antibody, V domains shown, Fully human anti-AMCase antibody from phage display, converted to full length IgG) VH: EVQLLESGGGLVQPGGSLRLSCAASGFTFSFYRMAWVRQAPGKGLEWVSRISSSGGPTMYADSVKGRFTISRDNSKNTLYLQMNSLRAEDTAVYYCTTEKQYAGVTFESWGQGTLVTVSS VL: DIQMTQSPATLSLSPGERATLSCRASQSVSSYLAWYQQKPGQAPRLLIYDASNRATGIPARFSGSGSGTDFTLTISSLEPEDFAVYYCQQRSNSPTFGGGTKVEIK    no binding
Z8 (antibody, V domains shown, Fully human anti-AMCase antibody from phage display, converted to full length IgG) VH: EVQLLESGGGLVQPGGSLRLSCAASGFTFSPYLMWWVRQAPGKGLEWVSYISSSGGYTSYADSVKGRFTISRDNSKNTLYLQMNSLRAEDTAMYYCARMYYYDSSGYPSFDYWGQGTLVTVSS VL: QSALTQPPSASGTPGQRVTISCSGSGSNIGSNTVNWYQQLPGTAPKLLIYSSNQRPSGVSDRFSGSKSVASASLAINGLQSEDEADYYCAGWDDSLNGPVFGGGTKLTVL    no binding
M1 (antibody, V domains shown, Fully human anti-AMCase antibody from phage display, converted to full length IgG) VH: EVQLLESGGGLVQPGGSLRLSCAASGFTFSTYGMDWVRQAPGKGLEWVSYISPSGGYTMYADSVKGRFTISRDNSKNTLYLQMNSLRAEDTAVYYCARHSPRSAGANAFDIWGQGTMVTVSS VL: DIQMTQSPATLSVSPGERATLSCRASQSVSSNLAWYQQKPGQAPRLLIYGASTRATGIPARFSGSGSGTEFTLTISSLQSEDFAVYYCQQYGSSLWTFGQGTKVEIK    no binding
M5 (antibody, V domains shown, Fully human anti-AMCase antibody from a phage display library, converted to full length IgG) VH: EVQLLESGGGLVQPGGSLRLSCAASGFTFSKYLMQWVRQAPGKGLEWVSSIVPSGGETVYADSVKGRFTISRDNSKNTLYLQMNSLRAEDTAVYYCARSGTYGASRYWGQGTLVTVSS VL: DIQMTQSPLSLSVSVGQSASISCRSSHSLLYSDGNTYINWFHQRPGQSPRRLIHMVSKRDSGVPDRFSGSGSGTDFTLKISRAEAEDVGVYYCMQATYFPLTFGGGTRVEIK    no binding
